Examples of variants with documented protein stability index follow.
B1: KRT18 (parent)
chain: PQVRDWSHYFKIIEDLRAQIFANT

# Variants of: B1
# ASSAY_REMARKS: protein stability index of a GFP-peptide fusion (GPS, HEK-293T) (PSI 1-6); higher = more stable;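 also: lentivirally expressed fusions sorted by FACS into six bins by GFP to DsRed ratio, PSI derived from sequencing read proportions per bin multiplied by bin number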
# PARTICULARS: c terminus: a fixed tail appended

{"SEQUENCE_ENTRY": "PRVRDWSHYFKIIEDLRAQIFANT [Q2R]", "protein stability index": 1.77}
{"SEQUENCE_ENTRY": "PQVRDWSHYFKIIEDLRAFIFANT [Q19F]", "protein stability index": 1.7}
{"SEQUENCE_ENTRY": "PQVRDWSHYFKIIEWLRAQIFANT [D15W]", "protein stability index": 1.61}
{"SEQUENCE_ENTRY": "PQVRDWSHAFKIIEDLRAQIFANT [Y9A]", "protein stability index": 2.24}
{"SEQUENCE_ENTRY": "PQVRDWSHYFKKIEDLRAQIFANT [I12K]", "protein stability index": 1.85}
{"SEQUENCE_ENTRY": "PQVRDWSHYFKIIEDLIAQIFANT [R17I]", "protein stability index": 2.61}
{"SEQUENCE_ENTRY": "PQVRDWSHYFKIQEDLRAQIFANT [I13Q]", "protein stability index": 2.75}
{"SEQUENCE_ENTRY": "PQVRDWSHYFKIIEDLRAQIFANQ [T24Q]", "protein stability index": 2.47}
{"SEQUENCE_ENTRY": "PQVRDWSHYFKIIHDLRAQIFANT [E14H]", "protein stability index": 2.69}
{"SEQUENCE_ENTRY": "PQVRDWSHYFKIIEDLRAQIFANK [T24K]", "protein stability index": 2.53}
{"SEQUENCE_ENTRY": "PQVRDWSHYFKIIEDLRAQIFKNT [A22K]", "protein stability index": 2.1}
{"SEQUENCE_ENTRY": "PQVRDWSHYFKIIYDLRAQIFANT [E14Y]", "protein stability index": 1.9}
{"SEQUENCE_ENTRY": "PQVRDWSHYFKIREDLRAQIFANT [I13R]", "protein stability index": 2.69}
{"SEQUENCE_ENTRY": "PQVRDWSHYFKIIEDLRAQGFANT [I20G]", "protein stability index": 2.9}
{"SEQUENCE_ENTRY": "PQVRDWSWYFKIIEDLRAQIFANT [H8W]", "protein stability index": 1.34}
{"SEQUENCE_ENTRY": "PQVRDWSHYFKIIEDLRAQIDANT [F21D]", "protein stability index": 3.27}
{"SEQUENCE_ENTRY": "PQVRDWSHYFKIIEDVRAQIFANT [L16V]", "protein stability index": 1.96}
{"SEQUENCE_ENTRY": "PQVRDWSHYFKIIEDLRAQIFANW [T24W]", "protein stability index": 2.27}
{"SEQUENCE_ENTRY": "PQVRDWSHKFKIIEDLRAQIFANT [Y9K]", "protein stability index": 1.76}
{"SEQUENCE_ENTRY": "PQVRDWSHYFKIIEDLRAQIFAND [T24D]", "protein stability index": 2.75}
{"SEQUENCE_ENTRY": "PQVRDWSHYFKIIPDLRAQIFANT [E14P]", "protein stability index": 1.67}
{"SEQUENCE_ENTRY": "PQVRDWSHYFKIIEDLRAQIFACT [N23C]", "protein stability index": 2.36}

src = the supplement of paper PMC10567573
